system: Bacillus thuringiensis; test: Antimicrobial activity against Bacillus thuringiensis after 24 hrs by microdilution susceptibility test; assay type: functional
resultType: log10 of MIC (log10 of the value in µg/mL)

- molecule: "N#Cc1ccccc1C(C#N)/N=N/c1ccc([N+](=O)[O-])cc1 (stereo unspecified)"
  resultType: "log10 of MIC"
  reading: 0.80
- molecule: "COc1ccc(C2C(C#N)c3ccccc3C(=N)C2(C#N)C#N)cc1 (stereo unspecified)"
  resultType: "log10 of MIC"
  reading: 2.00
- molecule: "O=C(N[C@H](CO)[C@H](O)c1ccc([N+](=O)[O-])cc1)C(Cl)Cl [CHLORAMPHENICOL]"
  resultType: "log10 of MIC"
  reading: 0.49
- molecule: "N=c1[nH]c2nn(-c3ccc([N+](=O)[O-])cc3)nc2c2ccccc12"
  resultType: "log10 of MIC"
  reading: 1.70
- molecule: "COc1ccc(/N=N/C(C#N)c2ccccc2C#N)cc1 (stereo unspecified)"
  resultType: "log10 of MIC"
  reading: 1.10
- molecule: "COc1ccc(/C=C(\\C#N)c2ccccc2C#N)cc1"
  resultType: "log10 of MIC"
  reading: 2.00

Value source: ChEMBL document CHEMBL2331322
